Data origin, for the record: patent US20240294508A1

Test system: HT-29 cells
protocol description: HT29 cells 0FBS assay in vitro: TNF-α/SMAC mimetic/zVAD-FMK induced necroptosis, CellTiter-Glo cell viability (RIP1 inhibitory activity)
Format: cell-based
condition label: Homo sapiens, FBS free medium, TNF-α (10 ng/ml) + SMAC mimetic (6 uM) + zVAD-FMK (10 μM), 20 hours, geometric mean EC50
pEC50: −log10 of the molar value.
quantity: pEC50

# lookup: pEC50 of Cc1nn(-c2cc(OC3CN(C(=O)N4N=CC[C@@H]4c4cccc(F)c4)C3)c(F)cn2)c(C)c1C(N)=O 5.00 to 6.00

Here is the next compound: Cc1nc([C@H]2CC=NN2C(=O)N2CC(Oc3cc(-c4c(C)cnn4C)ncc3F)C2)cs1 5.00 to 6.00

Here is the next compound: CCn1nc(C)c(-c2cc(OC3CN(C(=O)N4N=CC[C@H]4c4cc(F)cc(C#N)c4)C3)c(F)cn2)c1C 7.00 to 10.00

Here is the next compound: Cc1nc(C2CC=NN2C(=O)N2CC(Oc3cc(-c4ccnn4C)c(F)cc3F)C2)cs1 (stereo not drawn) 7.00 to 10.00

Here is the next compound: O=C(N1CC(Oc2cc(-c3ccc[nH]c3=O)ncc2F)C1)N1N=CC[C@H]1c1cc(F)cc(F)c1 7.00 to 10.00

Here is the next compound: Cc1cnn(C)c1-c1csc(OC2CN(C(=O)N3N=CC[C@H]3c3cc(F)cc(F)c3)C2)n1 7.00 to 10.00

Here is the next compound: CNC(=O)c1c(C)nn(-c2cc(OC3CN(C(=O)N4N=CC[C@H]4c4cccc(F)c4)C3)c(F)cn2)c1C 7.00 to 10.00

Here is the next compound: Cc1c(N)nn(C)c1-c1ccc(F)c(OC2CN(C(=O)N3N=CC[C@H]3c3cncc(F)c3)C2)n1 7.00 to 10.00

Here is the next compound: Cc1noc(C)c1-c1ncc(F)c(OC2CN(C(=O)N3N=CC[C@H]3c3cc(F)cc(C#N)c3)C2)n1 7.00 to 10.00

Here is the next compound: Cn1ncc(F)c1-c1cc(OC2CN(C(=O)N3N=CC[C@H]3c3cc(F)cc(C#N)c3)C2)c(F)cn1 7.00 to 10.00

Here is the next compound: Cn1ncc(Cl)c1-c1cc(OC2CN(C(=O)N3N=CC[C@H]3c3cncc(F)c3)C2)c(F)cn1 7.00 to 10.00

Here is the next compound: Cc1noc(C)c1-c1cc(OC2CN(C(=O)N3N=CC[C@H]3c3cc(F)cc(C#N)c3)C2)c(F)cn1 7.00 to 10.00

Here is the next compound: Cc1nn(-c2cc(OC3CN(C(=O)N4N=CC[C@H]4c4cc(F)cc(Cl)c4)C3)c(F)cn2)c(C)c1C(=O)O 7.00 to 10.00

Here is the next compound: Cc1nn(-c2cc(OC3CN(C(=O)N4N=CC[C@@H]4c4cc(F)cc(F)c4F)C3)c(F)cn2)c(C)c1C(=O)O 5.00 to 6.00

Here is the next compound: Cn1ncc(-c2cc(OC3CN(C(=O)N4N=CC[C@H]4c4cc(F)cc(C#N)c4)C3)c(F)cn2)n1 6.00 to 7.00
